Test system: NCI-H460 lung
Assay: NCI-60 one-dose screen, 48 h (100 = growth as untreated, 0 = no growth, -100 = all killed)
Conditions: 10 µM
The panel holds about 83,000 compounds, 20% with a hit somewhere; the sample as a whole holds those more often.
Would you please tag the item Yes when its growth is 50% or above, and No when it is below?

Worked examples, 10 molecules total:
| Molecule | System Tested | Answer Label |
| --- | --- | --- |
| Nc1nc2c(nnn2C2CC(O)C(CO)O2)c(=O)[nH]1 (configuration not stated) | NCI-H460 lung | Yes |
| CCn1nc(-c2ccccn2)c2cccnc2c1=S | NCI-H460 lung | Yes |
| N#CN1CC[C@H](C(=O)Nc2ncc(-c3ccccc3)s2)C1 | NCI-H460 lung | No |
| COc1cc(C)c2sc3ccccc3c(=O)c2c1NCCN(C)C | NCI-H460 lung | No |
| O=C(NNC(=O)c1ccncc1)Nc1ccc([N+](=O)[O-])cc1 | NCI-H460 lung | Yes |
| Nc1ncc(-c2ccc(C(F)(F)F)cc2)c(NC2CCCCCC2)n1 | NCI-H460 lung | No |
| CCCc1c(C)nc2scc(-c3ccc(Cl)cc3)n2c1=O | NCI-H460 lung | Yes |
| CCCCCc1cc[n+](CC(=O)c2ccc(Cl)cc2)cc1 | NCI-H460 lung | Yes |
| O=C(NNc1nc(N2CCCC2)nc(N2CCCC2)n1)c1ccccc1 | NCI-H460 lung | Yes |
| Cc1ccc2oc(=O)cc(/C(=C3/C=CC=N3)c3ccc[nH]3)c2c1 | NCI-H460 lung | No |

In plain terms: is recorded growth at least 50% for Oc1ccc(/C=N\Nc2ccccn2)c(O)c1 ?
No

Reported growth at or above 50%? C[C@@H]1N=C(c2ccc(Br)cc2)Nc2nc3ccccn3c2C1=O
No

====

Test system: SNB-75 CNS
Test: NCI-60 one-dose screen, 48 h (100 = growth as untreated, 0 = no growth, -100 = all killed)
Conditions: 10 µM
This is part of a sample that, as a whole, favours compounds with a hit. Of some 83,000 tested, about 20% had one in any assay.
Lab note: compare growth against 60%. Equal or greater, write t. Smaller, write f.

Threshold query (growth >= 60%) on COc1cccc(C(=O)NNc2nc(N3CCN(C4CCCCC4)CC3)nc(N3CCN(C(c4ccccc4)c4ccccc4)CC3)n2)c1
t

Could you tell me if the measured growth of COc1cc(Cl)cc(-c2nn(-c3cccc(NC(=O)Nc4cccc(C(F)(F)F)c4)c3)cc2-c2ccncc2)c1 reaches 60% or more?
f

Does the compound CNC(=O)c1cc(Oc2ccc(NC(=O)Nc3ccc(Cl)c(C(C)(C)C)c3)c(F)c2)ccn1 have recorded growth that is 60% or more?
t

Determine whether this compound has growth no lower than 60%: CCCc1ccnc(NS(=O)(=O)c2ccc(N)cc2)n1
t

====

Tested on: NCI-H23 lung
Assay: NCI-60 one-dose screen, 48 h
Conditions: 10 µM
Procedure: Growth inhibition of the NCI-H23 human Non-Small Cell Lung tumor cell line is measured as a screen for anti-cancer activity. Cells are grown in 96 well plates and exposed to the test compound for 48 hours. Compounds are tested at a single concentration, which is 10^-5 M for most compounds. The reported endpoint is percent growth (GI% or GIPRCNT), where numbers from 0 - 100% represent growth inhibition, and numbers from -100% - 0 represent cell death. […]
This is part of a sample that, as a whole, favours compounds with a hit. Of some 83,000 tested, about 20% had one in any assay. Calls of active or inactive are those of the source. How the source made its calls: active means growth percent below 10; inactive means the rest.
Please answer using one outcome listed in active, inactive

Below, 5 molecules whose answers are already recorded.
| Molecule | System Tested | Answer Label |
| --- | --- | --- |
| Cc1ccc(NS(=O)(=O)c2ccccc2)c(NS(=O)(=O)c2ccccc2)c1 | NCI-H23 lung | inactive |
| Nc1c(C(=O)Nc2ccccc2F)sc2nc3c(cc12)C(=O)CCC3 | NCI-H23 lung | inactive |
| CCCCCCCCCCN=C(c1ccc(N(C)C)cc1)c1ccc(N(C)C)cc1 | NCI-H23 lung | inactive |
| Nc1ccc(C2=CC(c3ccc(Cl)cc3)N3C=CSC3=N2)cc1 (configuration not stated) | NCI-H23 lung | active |
| O=C1CC[C@@H](C(=O)N[C@H]2CSSC[C@@H](C(=O)NCCc3ccccc3)NC(=O)[C@H](Cc3ccccc3)NC(=O)[C@@H]3CCCN3C(=O)[C@@H]3CCCN3C2=O)N1 | NCI-H23 lung | inactive |

Alright, here's another molecule for you.
Called result for COc1cc(CSc2nc3ccc(C)cc3c(=O)n2-c2ccccc2)cc(OC)c1OC
inactive
